- TARGET_OR_TEST_SYSTEM: T1, human ferroportin (SLC40A1) fused in frame with GFP, stably expressed in HEK293 cells (human, UniProt Q9NP59 1-571)
- T1 sequence (looked up): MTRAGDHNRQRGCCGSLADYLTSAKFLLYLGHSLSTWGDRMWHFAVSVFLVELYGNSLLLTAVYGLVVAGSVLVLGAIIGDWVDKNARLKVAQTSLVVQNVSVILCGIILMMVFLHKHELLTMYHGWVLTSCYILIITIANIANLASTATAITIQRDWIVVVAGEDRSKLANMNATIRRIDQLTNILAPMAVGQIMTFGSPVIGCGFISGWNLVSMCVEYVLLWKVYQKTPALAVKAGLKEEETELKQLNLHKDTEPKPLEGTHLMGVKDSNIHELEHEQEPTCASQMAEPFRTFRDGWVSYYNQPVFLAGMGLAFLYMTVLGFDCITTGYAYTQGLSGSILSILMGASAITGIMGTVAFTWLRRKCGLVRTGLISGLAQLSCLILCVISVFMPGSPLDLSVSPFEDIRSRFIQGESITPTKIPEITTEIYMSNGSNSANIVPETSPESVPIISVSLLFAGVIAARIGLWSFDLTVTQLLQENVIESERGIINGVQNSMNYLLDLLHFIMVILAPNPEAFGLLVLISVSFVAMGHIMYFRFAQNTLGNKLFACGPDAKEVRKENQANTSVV
- EXPERIMENT: cell-based or functional assay
Non-standard residues stand in square brackets, D forms with d. Groups on a side chain read outwards from the residue. No end group written: not given here. *: point of attachment. Dip = N[C@H](C(=O)O)C(c1ccccc1)c1ccccc1; Palmitoyl = CCCCCCCCCCCCCCCC(=O)*; β3hF = N[C@H](CC(=O)O)Cc1ccccc1; Isovaleryl = CC(C)CC(=O)*; Ahx = NCCCCCC(=O)O

>  <BINDER>
K(Isovaleryl)TH[Dip]PAIK([Ahx-Palmitoyl])[bhF] (also: marks (1:1) at Lys1 and (1:2) at bhF9 not explained) [[Lys(IVA(1:1)-T-H-[Dpa]-P-A-I-[Lys(Ahx_Palm)]-bhF(1:2)]

>  <FPN IC50 / µM>
2.15

$$$$
>  <BINDER>
Isovaleryl-ETH[Dip]AAI[dK][β3hF]K([Ahx-Palmitoyl])[dK]A-NH2 (SMILES CCCCCCCCCCCCCCCC(=O)NCCCCCC(=O)NCCCC[C@H](NC(=O)C[C@H](Cc1ccccc1)NC(=O)[C@@H](CCCCN)NC(=O)[C@@H](NC(=O)[C@H](C)NC(=O)[C@H](C)NC(=O)[C@@H](NC(=O)[C@H](Cc1c[nH]cn1)NC(=O)[C@@H](NC(=O)[C@H](CCC(=O)O)NC(=O)CC(C)C)[C@@H](C)O)C(c1ccccc1)c1ccccc1)[C@@H](C)CC)C(=O)N[C@H](CCCCN)C(=O)N[C@@H](C)C(N)=O) [Isovaleric Acid-E-T-H-[Dpa]-A-A-I-[(D)Lys]-[bhPhe]-[Lys(Ahx_Palm)]-[(D)Lys]-A-NH2]

>  <FPN IC50 / µM>
0.183

$$$$
>  <BINDER>
Isovaleryl-ETH[Dip]P[dK](Gal)IK([Ahx-Palmitoyl])[β3hF]-NH2 [Isovaleric Acid-E-T-H-[Dpa]-P-d[Lys(Gal)]-I-[Lys(Ahx_Palm)]-[bhPhe]-NH2]

>  <FPN IC50 / µM>
0.246

$$$$
